biological target: recombinant human ACC2 (Homo sapiens (Human), UniProt O00763); experiment: Measurement of inhibitory activity on human ACC2 (MALDI-TOF MS, acetyl CoA to malonyl CoA conversion); type: biochemical; conditions: Tables 155-159
Sequence (O00763 27-2458): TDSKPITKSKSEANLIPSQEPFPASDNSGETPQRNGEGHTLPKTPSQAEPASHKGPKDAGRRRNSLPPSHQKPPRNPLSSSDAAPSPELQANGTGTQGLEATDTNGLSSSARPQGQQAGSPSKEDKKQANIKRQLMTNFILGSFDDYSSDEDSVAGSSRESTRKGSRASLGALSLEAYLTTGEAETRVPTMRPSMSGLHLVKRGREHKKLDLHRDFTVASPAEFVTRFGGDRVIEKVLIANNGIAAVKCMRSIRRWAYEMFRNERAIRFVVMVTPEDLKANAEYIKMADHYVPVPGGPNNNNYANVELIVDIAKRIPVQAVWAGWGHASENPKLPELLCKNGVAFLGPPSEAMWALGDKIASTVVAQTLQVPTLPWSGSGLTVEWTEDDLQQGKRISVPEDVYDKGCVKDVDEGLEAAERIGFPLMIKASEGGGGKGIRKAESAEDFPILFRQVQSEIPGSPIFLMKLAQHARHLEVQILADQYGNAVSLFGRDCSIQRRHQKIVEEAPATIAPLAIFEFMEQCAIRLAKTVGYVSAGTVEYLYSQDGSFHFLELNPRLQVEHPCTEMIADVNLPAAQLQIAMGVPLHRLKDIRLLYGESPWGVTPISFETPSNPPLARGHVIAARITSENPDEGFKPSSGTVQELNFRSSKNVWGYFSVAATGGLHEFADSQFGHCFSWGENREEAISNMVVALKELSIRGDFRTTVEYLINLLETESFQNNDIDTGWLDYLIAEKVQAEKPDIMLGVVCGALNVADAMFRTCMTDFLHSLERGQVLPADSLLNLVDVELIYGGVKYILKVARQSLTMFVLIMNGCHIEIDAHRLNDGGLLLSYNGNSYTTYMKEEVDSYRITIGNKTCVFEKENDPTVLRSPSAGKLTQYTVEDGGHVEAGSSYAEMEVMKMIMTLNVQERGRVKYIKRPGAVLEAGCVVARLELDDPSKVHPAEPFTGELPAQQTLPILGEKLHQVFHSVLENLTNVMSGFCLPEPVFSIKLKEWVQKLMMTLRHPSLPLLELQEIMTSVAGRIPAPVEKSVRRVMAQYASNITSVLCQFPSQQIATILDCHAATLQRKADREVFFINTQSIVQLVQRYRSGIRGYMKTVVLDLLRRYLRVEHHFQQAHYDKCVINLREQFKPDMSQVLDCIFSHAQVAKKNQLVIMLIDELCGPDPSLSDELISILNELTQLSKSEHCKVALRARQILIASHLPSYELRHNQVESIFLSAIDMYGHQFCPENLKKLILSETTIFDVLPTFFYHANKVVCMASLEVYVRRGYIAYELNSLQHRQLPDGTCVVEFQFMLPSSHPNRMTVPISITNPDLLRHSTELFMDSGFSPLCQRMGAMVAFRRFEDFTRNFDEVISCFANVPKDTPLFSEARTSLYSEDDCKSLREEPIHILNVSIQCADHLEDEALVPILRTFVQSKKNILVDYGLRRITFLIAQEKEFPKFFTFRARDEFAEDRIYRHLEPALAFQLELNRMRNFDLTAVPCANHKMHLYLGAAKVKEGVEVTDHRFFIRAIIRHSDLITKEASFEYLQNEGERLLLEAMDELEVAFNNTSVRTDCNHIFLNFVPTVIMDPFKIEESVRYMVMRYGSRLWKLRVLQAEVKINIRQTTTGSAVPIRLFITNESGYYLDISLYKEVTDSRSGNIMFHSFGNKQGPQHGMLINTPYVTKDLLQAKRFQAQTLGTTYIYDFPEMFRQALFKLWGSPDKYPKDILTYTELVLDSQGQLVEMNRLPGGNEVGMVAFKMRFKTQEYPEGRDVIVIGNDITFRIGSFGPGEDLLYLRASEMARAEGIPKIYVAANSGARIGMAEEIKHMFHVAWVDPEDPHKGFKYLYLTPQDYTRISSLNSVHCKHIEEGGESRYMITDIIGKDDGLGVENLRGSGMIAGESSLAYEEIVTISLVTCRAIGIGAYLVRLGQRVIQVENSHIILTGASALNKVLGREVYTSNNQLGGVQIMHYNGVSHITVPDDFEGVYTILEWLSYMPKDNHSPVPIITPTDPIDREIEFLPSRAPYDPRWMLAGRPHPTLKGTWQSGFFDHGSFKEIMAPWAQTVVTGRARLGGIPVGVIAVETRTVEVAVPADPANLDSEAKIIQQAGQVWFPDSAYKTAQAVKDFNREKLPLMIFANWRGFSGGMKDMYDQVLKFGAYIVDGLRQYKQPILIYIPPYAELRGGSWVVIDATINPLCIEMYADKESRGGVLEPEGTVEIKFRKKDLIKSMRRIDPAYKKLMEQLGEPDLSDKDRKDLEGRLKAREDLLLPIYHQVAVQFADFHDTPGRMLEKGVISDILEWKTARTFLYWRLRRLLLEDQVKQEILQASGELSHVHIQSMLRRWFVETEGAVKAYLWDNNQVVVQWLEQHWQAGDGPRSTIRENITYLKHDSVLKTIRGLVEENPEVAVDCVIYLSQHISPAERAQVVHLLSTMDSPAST
experimentalReadout: IC50 (nM)

// worked examples, IC50 included
INSERT INTO measurements (molecule, assayedsystem, testresult) VALUES
  ('CC(=O)N[C@@H](C)CO[C@H]1C[C@H](COc2ncnc3c2ccn3CCC2CC2)C1', 'recombinant human ACC2 (Homo sapiens (Human), UniProt O00763)', 51),
  ('CC(=O)N[C@@H](C)CO[C@H]1CC[C@H](Oc2nc3ccc(Br)c(F)c3n2C)CC1', 'recombinant human ACC2 (Homo sapiens (Human), UniProt O00763)', 25),
  ('CCOc1nc2ccc(OC[C@H]3C[C@H](OC[C@H](CC)NC(C)=O)C3)c(F)c2s1', 'recombinant human ACC2 (Homo sapiens (Human), UniProt O00763)', 84);

1. CC(=O)N[C@@H](C)CO[C@H]1C[C@H](COc2ccc3nc(Oc4ccccc4)n(C)c3n2)C1
2. CC(=O)N[C@@H](C)CO[C@H]1CC[C@H](Oc2nc3c(C)nc(OC4CC4)c(Cl)c3n2C)CC1
3. CC(=O)N[C@@H](C)CO[C@H]1C[C@H](COc2ccc3nc(O[C@H]4C[C@@H](F)C4)sc3n2)C1
4. CC(=O)N[C@@H](C)[C@H](C)O[C@H]1CC[C@H](Oc2nc3cnc(OC4CC4)c(F)c3n2C)CC1
5. CC(=O)N[C@@H](C)CO[C@H]1C[C@H](COc2nccc(N(C)Cc3ccccc3)c2Cl)C1
Ascending by IC50, please. Form field (ranking): labels in requested order. 3, 2, 4, 5, 1

###

biological target: recombinant human ACC2 (Homo sapiens (Human)); test: Measurement of inhibitory activity on human ACC2 (MALDI-TOF MS, acetyl CoA to malonyl CoA conversion); assay type: biochemical; details: Tables 155-159
experimentalReadout: IC50 (nM)

Consider the following illustrative entries.
INSERT INTO results (compound, experimentalreadout, testresult) VALUES
  ('CC(=O)N[C@@H](C)CO[C@H]1C[C@H](COc2ccc3nc(OCC(C)(C)O)sc3n2)C1 [Compound I-300]', 'IC50', 165),
  ('CC(=O)N[C@@H](C)CO[C@H]1C[C@H](COc2nc3sc(N4CCC4)nc3cc2F)C1 [Compound I-266]', 'IC50', 36),
  ('CC(=O)N[C@@H](C)CO[C@H]1C[C@H](Cn2ccc3c(OCc4cc(Cl)ccn4)ncnc32)C1 [Compound I-470]', 'IC50', 426),
  ('CC(=O)N[C@@H](C)CO[C@H]1C[C@H](COc2ncnc(NCc3cccc(Cl)c3)c2Cl)C1 [Compound I-340]', 'IC50', 21);

P. CC(=O)N[C@@H](C)CO[C@H]1CC[C@H](Oc2nc3c(F)c(F)c(F)c(F)c3n2C)CC1 [Compound I-619]
Q. CC(=O)N[C@@H](C)CO[C@H]1C[C@H](COc2ncnc(-c3nc4ccccc4o3)c2Cl)C1 [Compound I-462]
// task: argmin of IC50 over [ P , Q ] # answer = label of selected item P
(P: 9 nM, Q: 90 nM)

I. CC(=O)N[C@@H](C)CO[C@H]1C[C@H](COc2ccc3nc(OCC4CC4(F)F)n(C)c3n2)C1 (stereo partly drawn) [Compound I-477]
II. CC(=O)N[C@@H](C)CO[C@H]1C[C@H](COc2ncnc(-c3ccc(C(F)(F)F)cc3)c2C)C1 [Compound I-418]
III. CC(=O)N[C@@H](C)CO[C@H]1CC[C@H](Oc2nc3ccc(C4CC4)c(F)c3n2C)CC1 [Compound I-621]
IV. CC(=O)N[C@@H](C)CO[C@H]1C[C@H](COc2ccc3nc(N4CCCC4)sc3c2F)C1 [Compound I-270]
Please rank these compounds by IC50 in descending order. Give me the labels in the order the question wants. II, I, IV, III

I. CC(=O)N[C@@H](C)CO[C@H]1C[C@](F)(COc2ccc3nc(C(C)(C)O)sc3c2F)C1 [Compound I-160]
II. C[C@@H](CO[C@H]1CC[C@H](Oc2ccc3nc(C(C)(F)F)sc3c2F)CC1)NC(=O)CO [Compound I-143]
III. CCOc1c(Cl)cc2nc(O[C@H]3CC[C@H](OC[C@H](C)NC(C)=O)CC3)n(C)c2c1Cl [Compound I-603]
List by increasing IC50. Please list the labels according to the requested order. III, II, I

1. CC(=O)N[C@@H](C)CO[C@H]1C[C@](F)(COc2ccc3nc(OC(C)C)sc3n2)C1 [Compound I-299]
2. CCc1cnc(-c2cnc(O[C@H]3CC[C@H](OC[C@H](C)NC(C)=O)CC3)c(F)c2)nc1 [Compound I-533]
Would you mind telling me which has the lower recorded IC50 between 1 and 2 ? Your choice should be expressed through its label. 1
